Test system: RAW-Dual (murine macrophage reporter line)
Protocol summary: IRF reporter (Lucia luciferase) activity fold change vs agonist alone; higher = enhanced IRF activity
Condition set: modulator concentration 10 µM; agonist: 3'3'-cGAMP 10 ug/mL
# IRF reporter >= 0.6 gives label 1, anything below gives label 0

| Molecule | Assigned label |
| --- | --- |
| O=C(NN=Cc1ccc(O)c(O)c1)c1cc2ccccc2cc1O | label 0 |
| CNC1CCC(c2ccc(Cl)c(Cl)c2)c2ccccc21.Cl (configuration not stated) | label 0 |
| NCC1OC(OC2C(CO)OC(OC3C(O)C(N)CC(N)C3OC3OC(CN)C(O)C(O)C3N)C2O)C(N)C(O)C1O.O=S(=O)(O)O (configuration not stated) | label 1 |
| COc1cc(OC)cc(C(=O)N2CCN(c3ccc(Nc4cccc(C)n4)nn3)CC2)c1 | label 1 |

Req: Record CC(C(=O)O)c1ccc2c(c1)[nH]c1ccc(Cl)cc12 (configuration not stated) ; criterion: IRF reporter no lower than 0.6. Met?
Resp: label 1

Req: Record Cc1ccc(C(CNC(=O)NC2CCCC2)OCCO)cc1 (configuration not stated) ; criterion: IRF reporter no lower than 0.6. Met?
Resp: label 1

Req: Record `O=c1c(-c2ccc(O)cc2)coc2cc(O)cc(O)c12` ; criterion: IRF reporter no lower than 0.6. Met?
Resp: label 1

---

Tested on: RAW-Dual (murine macrophage reporter line)
Protocol summary: NF-kB reporter (SEAP) activity fold change vs agonist alone; higher = enhanced NF-kB activity
Condition set: modulator concentration 10 µM; agonist: LPS 0.1 ug/mL
Overview of reported NF-kB reporter across a group of molecules:

| Molecule | Assay system | NF-kB reporter |
| --- | --- | --- |
| Br.C=CCn1c(=N)n(CC(=O)c2cccc([N+](=O)[O-])c2)c2ccccc21 | RAW-Dual (murine macrophage reporter line) | 0.997 |
| CO[C@@]1(NC(=O)CSCC#N)C(=O)N2C(C(=O)[O-])=C(CSc3nnnn3C)CS[C@@H]21 | RAW-Dual (murine macrophage reporter line) | 1.02 |
| OCCOCCN1CCN(C(c2ccccc2)c2ccc(Cl)cc2)CC1 (configuration not stated) | RAW-Dual (murine macrophage reporter line) | 0.934 |
| COC(c1ccccc1)(c1ccccc1)C(Oc1nc(C)cc(C)n1)C(=O)O (configuration not stated) | RAW-Dual (murine macrophage reporter line) | 0.945 |
| COc1ccc(Br)cc1S(=O)(=O)NCc1ccccc1 | RAW-Dual (murine macrophage reporter line) | 0.932 |

NF-kB reporter measured on CC(Oc1ccccc1)C(=O)NCc1cc(-c2ccncc2)n(C2CCCC2)n1 (configuration not stated) = 1.24

NF-kB reporter measured on C#CCCCCCCCCCCCC(=O)CC(O)COC(C)=O (configuration not stated) = 0.338

---

System: RAW-Dual (murine macrophage reporter line)
Protocol summary: viability score (confluency relative to resting cells, overnight) (fraction); higher = more viable, active = viable (0.7 or more)
Condition set: modulator concentration 10 µM
Overview of reported viability score across a group of compounds:
Form: value (number only, do not type unit).

| Compound | Reported |
| --- | --- |
| Cc1ccc(C(=O)NC(=Cc2cccc3ccccc23)C(=O)N2CCCC2)cc1 | 1.01 |
| CSc1nc2cccc(F)c2c(=O)n1C1CC1 | 0.67 |
| O=C(NCC1(O)CCc2ccccc2C1)c1cccc(C(F)(F)F)c1 (stereo not drawn) | 0.994 |
| O=C(Cc1ccc([N+](=O)[O-])cc1)NN=Cc1cccnc1 | 1 |
| O=C(CCC1CCCC1)Nc1cccc(F)c1 | 1 |
| CC(C)(C)C(=O)OCOP(=O)(COCCn1cnc2c(N)ncnc21)OCOC(=O)C(C)(C)C | 0.788 |
| O=C(CCCN1CCC(O)(c2ccc(Cl)cc2)CC1)c1ccc(F)cc1 | 1.01 |
| CC(=O)N1CCN(C(=O)Cn2cnc(-c3ccc(C)cc3)cc2=O)CC1 | 0.964 |

viability score measured on CSCCC(NC(C)=O)C(=O)N1CCc2nc3ccc(F)cn3c(=O)c2C1 (stereo not drawn) = 1.01

viability score measured on `COc1ccc(C2=CC(=Cc3cccc(OC)c3OC)C(=O)O2)c(OC)c1` = 1

viability score measured on `NC(=O)CSc1nc(O)cc(=O)n1-c1ccccc1F` = 1.01

viability score measured on `C=CC(=O)N1CCC(Oc2cc3c(Nc4ccc(Cl)c(Cl)c4F)ncnc3cc2OC)CC1` = 0.97

viability score measured on `COc1ccc(Br)cc1C(=O)Nc1cc(C(F)(F)F)cc(C(F)(F)F)c1` = 0.999

viability score measured on `O=c1c(-c2ccccc2)coc2cc(O)ccc12` = 1

viability score measured on `COc1cccc2c1C(=O)c1c(O)c3c(c(O)c1C2=O)C[C@@](O)(C(=O)CO)C[C@@H]3O[C@H]1C[C@H](N)[C@H](O)[C@H](C)O1` = 0.114

viability score measured on `Cc1cccc(N(CC(=O)Nc2ccc3c(c2)OCO3)S(C)(=O)=O)c1` = 1.02

viability score measured on COc1ccc(CCN(C)CCCC(C#N)(c2ccc(OC)c(OC)c2)C(C)C)cc1OC.Cl (stereo not drawn) = 0.977

viability score measured on `Br.Cc1ccc(Sc2ccccc2N2CCNCC2)c(C)c1` = 0.527

viability score measured on `S=c1n(CN2CCOCC2)nc(-c2ccccc2Cl)n1-c1ccccc1` = 0.993
